- TARGET_OR_TEST_SYSTEM: thrombin (alpha-thrombin) (Homo sapiens, UniProt P00734;P00734 P00734:315-363,P00734:364-622)
- ASSAY_NAME: filter
pKd: −log10 of the molar value.
Decide using pKd: a value greater than or equal to 9 is True, a smaller one is False.

# example entries with known answers
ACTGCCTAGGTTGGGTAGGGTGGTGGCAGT (ssDNA, PS linkage between nt 15 and 16) [ARC2658]: True
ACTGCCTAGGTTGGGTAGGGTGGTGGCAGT (XNA, 2'-OMe A28, rest DNA) [ARC2640]: True

q: Identify whether the reported pKd of the following binder is 9 or greater: ACTGCCUAGGTTGGGTAGGGTGGTGGCAGT (XNA, 2'-OMe U7, rest DNA) [ARC2619]
a: True

q: Identify whether the reported pKd of the following binder is 9 or greater: AUGAUUAGGTTGGGTAGGGTGGUAUCAU (XNA, 2'-OMe 1-6,23-28, rest DNA) [ARC2834]
a: False

q: Identify whether the reported pKd of the following binder is 9 or greater: AAUGAUUAGGTTGGGTAGGGTGGUAUCAUU (XNA, 2'-OMe 1-7,24-30, rest DNA) [ARC2827]
a: False
